molecular target: N128A mutant 5-HT3 receptor (mouse 5-HT3A subunit) (Mus musculus, UniProt P23979, N128A); test: Agonist-induced currents, voltage clamp electrophysiology in Xenopus oocytes; type: cell-based; details: N128A
Assay metric: pEC50
Note on pEC50: it is the negative log10 of concentration, concentration in mol/L.

Give recorded pEC50. N=C(N)NC(=N)Nc1cccc(Cl)c1 [mCPBG, m-chlorophenylbiguanide]
5.96

----------
Molecular target: N128E mutant 5-HT3 receptor (mouse 5-HT3A subunit) (Mus musculus, UniProt P23979, N128E)
Sequence (P23979 24-483 isoform P23979-2 N128E limits assumed): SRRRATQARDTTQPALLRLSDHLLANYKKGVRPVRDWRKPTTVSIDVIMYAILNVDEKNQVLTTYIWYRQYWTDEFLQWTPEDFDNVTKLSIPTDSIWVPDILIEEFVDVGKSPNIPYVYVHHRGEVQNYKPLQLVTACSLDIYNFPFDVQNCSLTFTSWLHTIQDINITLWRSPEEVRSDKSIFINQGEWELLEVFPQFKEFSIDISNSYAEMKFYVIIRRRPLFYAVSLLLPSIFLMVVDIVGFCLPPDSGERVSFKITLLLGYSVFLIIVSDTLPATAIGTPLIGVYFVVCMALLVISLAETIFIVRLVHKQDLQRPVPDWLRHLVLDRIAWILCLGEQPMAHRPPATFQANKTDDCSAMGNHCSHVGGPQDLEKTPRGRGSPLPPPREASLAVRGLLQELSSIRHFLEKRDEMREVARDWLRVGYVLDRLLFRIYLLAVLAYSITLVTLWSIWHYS
Assay: Agonist-induced currents, voltage clamp electrophysiology in Xenopus oocytes
Assay type: cell-based
Details: N128E
Assay metric: EC50 (µM)
Number in µM, nothing else.

Entry N=C(N)NC(=N)Nc1cccc(Cl)c1 [mCPBG, m-chlorophenylbiguanide] needs its EC50 filled in; supply it.
0.28

----------
nH (Hill coefficient) by entry:
target: N128Q mutant 5-HT3 receptor (mouse 5-HT3A subunit) (Mus musculus, UniProt P23979, N128Q); experiment: Agonist-induced currents, voltage clamp electrophysiology in Xenopus oocytes; type: cell-based; conditions: N128Q
Please give only the number in your answer, with no unit.

Compound | nH (Hill coefficient)
NCCc1c[nH]c2ccccc12 | 3.10
NCCc1c[nH]c2ccc(F)cc12 | 2.38
N=C(N)NC(=N)Nc1cccc(Cl)c1 [mCPBG, m-chlorophenylbiguanide] | 2.41

From here, focus on the item given below.
Give nH (Hill coefficient) for NCCc1c[nH]c2ccc(O)cc12 [5-HT, 5-hydroxytryptamine] tested on N128Q mutant 5-HT3 receptor (mouse 5-HT3A subunit) (Mus musculus, UniProt P23979, N128Q).
2.11

----------
Molecular target: E129-Nha mutant 5-HT3 receptor (mouse 5-HT3A subunit) (Mus musculus, UniProt Q6J1J7)
Sequence (Q6J1J7 24-483): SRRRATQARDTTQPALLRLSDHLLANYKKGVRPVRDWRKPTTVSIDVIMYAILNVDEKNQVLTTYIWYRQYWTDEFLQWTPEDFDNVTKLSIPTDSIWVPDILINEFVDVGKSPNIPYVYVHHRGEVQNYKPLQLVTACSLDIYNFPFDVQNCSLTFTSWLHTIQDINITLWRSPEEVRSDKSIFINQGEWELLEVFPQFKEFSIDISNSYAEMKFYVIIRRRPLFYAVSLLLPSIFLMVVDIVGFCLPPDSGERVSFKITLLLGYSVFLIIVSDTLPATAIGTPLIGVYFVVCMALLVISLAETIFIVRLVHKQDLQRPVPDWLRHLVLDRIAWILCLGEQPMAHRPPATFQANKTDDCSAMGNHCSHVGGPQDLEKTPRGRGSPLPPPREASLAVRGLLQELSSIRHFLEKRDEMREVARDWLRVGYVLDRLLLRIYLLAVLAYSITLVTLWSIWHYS
Test: Agonist-induced currents, voltage clamp electrophysiology in Xenopus oocytes
Format: cell-based
Assay metric: EC50 (nM)
Give the quantity in nM, number only.

Molecule | Quantity unit | EC50
N=C(N)NC(=N)Nc1cccc(Cl)c1 [mCPBG, m-chlorophenylbiguanide] | nM | 560

With those in mind, consider the next molecule.
// fetch EC50 given entry NCCc1c[nH]c2ccc(O)cc12 [5-HT, 5-hydroxytryptamine]
3500
